Data provenance: patent US8580556B2

- Tested on: tetA promoter (PtetA)-lacZ reporter in E. coli KM3
- Type: cell-based
- experimental context: Table 6, reverse repressor hits; anhydrotetracycline
# if value of relative β-galactosidase activity, inducer atc reaches 2, tag T; if it stays below, tag F

Completed entries (count: 5):
L1-21: library L1 reverse repressor hit (SEQ ID NO: 1206-1213) (protein, rSuR L1-21) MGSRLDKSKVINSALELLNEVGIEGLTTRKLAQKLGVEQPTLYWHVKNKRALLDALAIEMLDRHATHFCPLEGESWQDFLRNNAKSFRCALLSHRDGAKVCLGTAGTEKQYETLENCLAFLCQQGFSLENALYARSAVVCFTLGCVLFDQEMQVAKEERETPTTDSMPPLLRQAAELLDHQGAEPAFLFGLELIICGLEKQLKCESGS	T
L1-41: library L1 reverse repressor hit (SEQ ID NO: 1206-1213) (protein, rSuR L1-41) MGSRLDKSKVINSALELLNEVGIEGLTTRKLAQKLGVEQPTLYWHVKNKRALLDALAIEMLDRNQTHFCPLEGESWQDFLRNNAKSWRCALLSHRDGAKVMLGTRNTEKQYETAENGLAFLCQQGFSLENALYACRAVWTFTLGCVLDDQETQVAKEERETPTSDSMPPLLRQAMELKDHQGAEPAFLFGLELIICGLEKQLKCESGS	T
L1-36: library L1 reverse repressor hit (SEQ ID NO: 1206-1213) (protein, rSuR L1-36) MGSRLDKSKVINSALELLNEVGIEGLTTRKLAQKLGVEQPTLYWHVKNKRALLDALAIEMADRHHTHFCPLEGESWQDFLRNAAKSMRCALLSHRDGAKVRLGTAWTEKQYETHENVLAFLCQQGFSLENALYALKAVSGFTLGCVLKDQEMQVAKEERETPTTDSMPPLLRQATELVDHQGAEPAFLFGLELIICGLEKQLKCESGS	F
L1-39: library L1 reverse repressor hit (SEQ ID NO: 1206-1213) (protein, rSuR L1-39) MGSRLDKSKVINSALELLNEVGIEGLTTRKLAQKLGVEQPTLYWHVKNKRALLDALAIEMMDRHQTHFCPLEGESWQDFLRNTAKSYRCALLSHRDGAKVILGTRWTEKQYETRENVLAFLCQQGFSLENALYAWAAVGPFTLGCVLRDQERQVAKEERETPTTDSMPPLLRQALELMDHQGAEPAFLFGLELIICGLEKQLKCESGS	T
L1-34: library L1 reverse repressor hit (SEQ ID NO: 1206-1213) (protein, rSuR L1-34) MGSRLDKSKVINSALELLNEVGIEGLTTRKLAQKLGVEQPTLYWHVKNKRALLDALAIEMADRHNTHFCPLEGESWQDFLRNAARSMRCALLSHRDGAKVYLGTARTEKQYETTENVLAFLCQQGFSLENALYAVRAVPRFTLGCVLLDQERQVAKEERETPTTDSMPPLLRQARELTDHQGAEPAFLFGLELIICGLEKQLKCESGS	T

Lab note: next molecule to report on.
Form field: relative β-galactosidase activity, inducer atc at least 2? Entry: L1-25: library L1 reverse repressor hit (SEQ ID NO: 1206-1213) (protein, rSuR L1-25) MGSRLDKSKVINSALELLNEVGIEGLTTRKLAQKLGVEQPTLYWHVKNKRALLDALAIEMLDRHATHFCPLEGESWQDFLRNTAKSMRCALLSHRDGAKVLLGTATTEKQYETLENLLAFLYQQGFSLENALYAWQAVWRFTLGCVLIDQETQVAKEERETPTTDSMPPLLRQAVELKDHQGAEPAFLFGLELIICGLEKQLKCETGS
F
